Target: T1, human interleukin-2 receptor α-chain (IL-2Rα; CD25), recombinant protein (human, UniProt P01589 22-240, limits assumed)
T1 construct: also called huIL2R-a; hIL-2RA
T1 sequence: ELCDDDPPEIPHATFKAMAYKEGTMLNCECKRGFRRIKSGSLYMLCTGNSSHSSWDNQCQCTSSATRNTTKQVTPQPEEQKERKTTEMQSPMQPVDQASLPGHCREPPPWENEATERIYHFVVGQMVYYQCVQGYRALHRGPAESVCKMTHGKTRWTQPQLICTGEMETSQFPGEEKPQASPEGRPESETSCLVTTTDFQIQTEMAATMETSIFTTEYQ
Test: P.E. binding ELISA
Property Name: OD450 nm (OD450 nm)
Output spec: scalar in OD450 nm, unitless text.

# binder 2-MP01A02 VHH (periplasmic extract) (VHH, soluble VHH in periplasmic extract) VHH: QVQLVESGGGLVQPGGSLRLSCATSGFTFRNNFMSWVRQAPGKGLEWVSTISYGGESTTYAESVKGRFTISRDNAKNTLYLQMNNLKPEDTAVYYCAKATSYDSIRSGSRGQGTQVTVSS ; its OD450 nm = 2.62

Looking up 5-MP01F05 VHH (periplasmic extract) (VHH, soluble VHH in periplasmic extract) VHH: EVQLVESGGGLVQAGGSLRLSCAASIRAFTTWSMAWFRQAPGKEREYVARINVSGSVTYYADFVKGRFTISRDNAKKTMYLEMNNLKPEDTALYYCAADRTGVGTNDYNYWGQGTQVTVSS , I see its OD450 nm listed as 2.62

Value of OD450 nm reported for the binder 9-MP05G01 VHH (periplasmic extract) (VHH, soluble VHH in periplasmic extract) VHH: EVQLVESGGGLVQAGGSLRLSCAASGGSIYTYNMGWFRQAPGKEREFVAGTLWSGGDSVYADFAKGRFTLSRENAKNTLYLQMNSLKPEDTATYYCAIDPLSLTSDWRVDELSSWGKGTLVTVSS is 2.35
